Experiment: Pharmacokinetic evaluation of liquid bevirimat dosage forms, oral gavage, male Cynomolgus monkeys
Settings: male, cynomolgus monkey, in vivo, po, 50 mg, Cmax, 12.5 mg FAE/mL in 15% Ethanol, 30% PG, 10% Glycerin, 50 mg FAE oral gavage; monkeys 117,118,119,AVG
Observed property: Cmax (µg/mL)
Your answer is read as µg/mL, so omit the unit and give the number.

Inquiry: Look up Cmax: C=C(C)[C@@H]1CC[C@]2(C(=O)O)CC[C@]3(C)[C@H](CC[C@@H]4[C@@]5(C)CC[C@H](OC(=O)CC(C)(C)C(=O)O)C(C)(C)[C@@H]5CC[C@]43C)[C@@H]12
Reply text: 64.1

Measured values drawn from patent US20100216751A1 for this set.
